Entries below carry reported AC50 on Sodium-dependent noradrenaline transporter (Homo sapiens, UniProt P23975).
Sequence (P23975 whole entry): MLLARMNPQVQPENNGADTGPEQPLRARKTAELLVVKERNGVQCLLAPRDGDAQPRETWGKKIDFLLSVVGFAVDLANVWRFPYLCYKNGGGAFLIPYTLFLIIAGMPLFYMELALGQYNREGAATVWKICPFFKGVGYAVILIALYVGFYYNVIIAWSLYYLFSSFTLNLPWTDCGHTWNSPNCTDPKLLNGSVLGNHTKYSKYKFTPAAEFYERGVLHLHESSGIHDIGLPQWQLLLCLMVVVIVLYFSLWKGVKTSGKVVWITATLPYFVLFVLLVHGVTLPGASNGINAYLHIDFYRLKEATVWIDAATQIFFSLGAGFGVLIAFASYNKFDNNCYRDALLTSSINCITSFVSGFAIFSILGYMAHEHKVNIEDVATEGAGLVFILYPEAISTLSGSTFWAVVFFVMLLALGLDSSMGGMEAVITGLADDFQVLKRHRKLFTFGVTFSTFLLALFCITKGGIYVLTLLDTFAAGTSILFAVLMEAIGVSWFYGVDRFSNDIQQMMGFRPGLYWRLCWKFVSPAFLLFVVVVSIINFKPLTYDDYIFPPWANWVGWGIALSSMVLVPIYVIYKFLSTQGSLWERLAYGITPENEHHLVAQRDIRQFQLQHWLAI

Solved entries:
INSERT INTO assay_data (molecule, parameter, reported_measurement) VALUES
  ('COc1ccc(CCNCC(O)COc2cccc(C)c2)cc1OC (stereo not drawn)', 'AC50', '> 30 µM'),
  ('C[C@]1(O)CC[C@H]2[C@@H]3CCC4=CC(=O)CC[C@]4(C)[C@@]3(F)[C@@H](O)C[C@@]21C', 'AC50', '> 10 µM'),
  ('c1cnc(N2CCN(Cc3ccc4c(c3)OCO4)CC2)nc1', 'AC50', '18 µM'),
  ('CC(C)C[C@H]1C(=O)N2CCC[C@H]2[C@]2(O)O[C@](NC(=O)[C@@H]3C=C4c5cccc6[nH]c(Br)c(c56)C[C@H]4N(C)C3)(C(C)C)C(=O)N12', 'AC50', '> 30 µM'),
  ('CC(Oc1c(Cl)cccc1Cl)C1=NCCN1 (stereo not drawn)', 'AC50', '> 30 µM');

Query: Requested read-out: AC50. Entry: "CC(C)(C)c1cc(C(C)(C)C)c(NC(=O)c2c[nH]c3ccccc3c2=O)cc1O"
Reply: 6.5 µM

Query: Requested read-out: AC50. Entry: "CC[C@@H](C(N)=O)N1CCCC1=O"
Reply: > 30 µM

Query: Requested read-out: AC50. Entry: CCCC(=O)O[C@]1(C(=O)CO)CC[C@H]2[C@@H]3CCC4=CC(=O)CC[C@]4(C)[C@H]3[C@@H](O)C[C@@]21C [HYDROCORTISONE BUTYRATE]
Reply: > 10 µM

Query: Requested read-out: AC50. Entry: CCCN1C[C@H](CSC)C[C@@H]2c3cccc4[nH]cc(c34)C[C@H]21 [PERGOLIDE]
Reply: > 30 µM

Query: Requested read-out: AC50. Entry: CCCC(C)C1(CC)C(=O)NC(=O)NC1=O (stereo not drawn)
Reply: > 10 µM
